Molecular target: furin, P09958;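 note: purified furin at 1:10 enzyme:substrate in 50 mM HEPES pH 7.5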
Sequence (P09958 whole entry): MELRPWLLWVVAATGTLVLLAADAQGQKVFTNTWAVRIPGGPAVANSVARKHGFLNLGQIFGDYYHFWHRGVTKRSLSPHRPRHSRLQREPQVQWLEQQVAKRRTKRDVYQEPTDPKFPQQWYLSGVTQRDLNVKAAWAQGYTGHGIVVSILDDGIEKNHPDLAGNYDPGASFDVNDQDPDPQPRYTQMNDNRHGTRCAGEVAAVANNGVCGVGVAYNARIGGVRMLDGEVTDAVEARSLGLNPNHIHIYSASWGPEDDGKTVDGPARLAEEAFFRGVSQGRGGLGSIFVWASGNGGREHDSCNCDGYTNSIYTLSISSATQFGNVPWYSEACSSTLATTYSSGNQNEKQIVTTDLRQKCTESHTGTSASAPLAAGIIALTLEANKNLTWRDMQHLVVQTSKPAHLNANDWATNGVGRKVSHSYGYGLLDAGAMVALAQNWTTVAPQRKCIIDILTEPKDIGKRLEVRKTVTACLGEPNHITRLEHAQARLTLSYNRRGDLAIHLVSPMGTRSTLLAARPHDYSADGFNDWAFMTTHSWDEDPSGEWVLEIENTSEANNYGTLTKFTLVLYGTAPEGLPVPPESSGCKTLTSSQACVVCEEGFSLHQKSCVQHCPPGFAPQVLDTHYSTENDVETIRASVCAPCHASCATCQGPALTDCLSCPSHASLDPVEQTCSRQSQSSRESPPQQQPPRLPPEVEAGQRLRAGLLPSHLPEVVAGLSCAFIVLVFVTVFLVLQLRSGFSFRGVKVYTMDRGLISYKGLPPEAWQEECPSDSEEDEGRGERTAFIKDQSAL
Assay: furin cleavage Z-score vs untreated control; higher = more cleavage, active = 3.5 or more, inactive = 1 or less, 8 variable residues between constant flanks
Conditions: 7.5 min
The other results are listed elsewhere or left out. The true hit rate is not given.
Outcome field: choose from y (active), n (inactive)

1) CAGWFTAGYSAGNASASA [HC1645] | n
2) CAKSRRARRDAGNASASA [FS-1597] | y
3) CAESTRTRRAAGNASASA [FS-1522] | y
4) CARRRRGLECAGNASASA [FS-2789] | y

Read the next record carefully.
Challenge: I would be grateful if you could indicate the recorded call for CAHPSRKRRAAGNASASA [FS-132] .
Response given: y

Just for reference, the supplement of paper PMC3545927 is where these values come from.
